# tgt: α4β7 integrin (Homo sapiens, UniProt P13612+P26010)
# Construct: monitoring the capture of α4β7 integrin expressing cells; endogenous in cells; host or cells: RPMI8866
# Sequence (P13612 34-1032): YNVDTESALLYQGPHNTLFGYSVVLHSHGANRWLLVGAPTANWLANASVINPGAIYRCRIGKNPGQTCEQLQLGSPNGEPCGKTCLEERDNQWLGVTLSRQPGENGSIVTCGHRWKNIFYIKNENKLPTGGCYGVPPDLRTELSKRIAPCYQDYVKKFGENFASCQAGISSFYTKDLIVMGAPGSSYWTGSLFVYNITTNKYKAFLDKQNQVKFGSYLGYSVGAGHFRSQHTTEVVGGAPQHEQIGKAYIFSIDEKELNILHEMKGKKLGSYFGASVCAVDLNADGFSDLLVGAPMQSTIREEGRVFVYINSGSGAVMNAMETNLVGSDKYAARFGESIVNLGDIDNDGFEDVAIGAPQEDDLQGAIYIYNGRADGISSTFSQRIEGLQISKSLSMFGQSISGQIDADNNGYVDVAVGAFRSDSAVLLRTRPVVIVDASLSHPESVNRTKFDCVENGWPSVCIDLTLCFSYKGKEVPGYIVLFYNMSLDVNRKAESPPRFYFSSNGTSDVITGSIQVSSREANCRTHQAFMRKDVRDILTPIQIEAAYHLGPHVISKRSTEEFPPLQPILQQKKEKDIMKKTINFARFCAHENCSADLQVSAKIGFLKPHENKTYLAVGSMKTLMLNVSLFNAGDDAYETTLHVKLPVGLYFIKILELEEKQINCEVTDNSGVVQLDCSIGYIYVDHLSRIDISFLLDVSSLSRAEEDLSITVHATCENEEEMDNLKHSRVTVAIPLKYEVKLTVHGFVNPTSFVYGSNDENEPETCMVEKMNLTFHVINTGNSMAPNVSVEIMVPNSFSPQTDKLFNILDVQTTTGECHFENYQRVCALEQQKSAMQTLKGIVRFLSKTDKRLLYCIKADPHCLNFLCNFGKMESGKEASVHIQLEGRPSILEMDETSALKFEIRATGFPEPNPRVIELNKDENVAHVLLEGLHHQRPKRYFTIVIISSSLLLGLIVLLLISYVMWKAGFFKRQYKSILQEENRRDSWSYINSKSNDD
# Sequence (P26010 20-798): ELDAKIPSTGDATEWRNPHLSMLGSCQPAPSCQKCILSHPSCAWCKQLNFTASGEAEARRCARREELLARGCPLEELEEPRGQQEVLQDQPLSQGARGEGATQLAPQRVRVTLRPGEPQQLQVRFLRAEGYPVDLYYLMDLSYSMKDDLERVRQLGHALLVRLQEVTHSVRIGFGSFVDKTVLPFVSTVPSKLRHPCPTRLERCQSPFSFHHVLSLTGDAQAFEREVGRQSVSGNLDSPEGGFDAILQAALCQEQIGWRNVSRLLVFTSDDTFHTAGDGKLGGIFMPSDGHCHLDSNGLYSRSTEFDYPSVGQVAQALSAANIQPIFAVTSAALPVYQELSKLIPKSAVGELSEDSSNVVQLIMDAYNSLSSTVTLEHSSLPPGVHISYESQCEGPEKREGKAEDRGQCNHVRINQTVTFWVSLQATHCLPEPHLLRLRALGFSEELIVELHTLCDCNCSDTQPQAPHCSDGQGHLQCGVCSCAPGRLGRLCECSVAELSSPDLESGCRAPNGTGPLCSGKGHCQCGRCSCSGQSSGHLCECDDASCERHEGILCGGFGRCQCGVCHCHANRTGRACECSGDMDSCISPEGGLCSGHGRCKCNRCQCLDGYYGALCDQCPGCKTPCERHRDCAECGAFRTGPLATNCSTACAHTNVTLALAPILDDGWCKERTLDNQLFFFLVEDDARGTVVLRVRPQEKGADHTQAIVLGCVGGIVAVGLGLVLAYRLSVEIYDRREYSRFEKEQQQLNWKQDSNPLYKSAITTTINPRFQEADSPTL
# assay overview: α4β7 Integrin Cell Capture Assay
# Assay type: cell-based
# test context: capture of α4β7 integrin expressing RPM18866 cells on MadCAM-1 extracellular domain-coated plate; Table 1
experimental readout: pEC50
Entry type: numeric. Quantity: pEC50, the -log10 of concentration in molar units.

Request: Return pEC50 (reported value) for this compound: Cc1cc(N2CCOC[C@@H]2C(F)(F)F)cc(F)c1C(=O)N[C@@H](Cc1ccc(-n2c(=O)c3c(n(C)c2=O)COCC3)cc1)C(=O)O [Example 63]
Response: 10.00

Request: Return pEC50 (reported value) for this compound: Cc1cc(N2CCOC[C@@H]2CC(F)F)cc(F)c1C(=O)N[C@@H](Cc1ccc(-n2c(=O)c3c(n(C)c2=O)COC3)cc1)C(=O)O [Example 70]
Response: 8.41

Request: Return pEC50 (reported value) for this compound: Cc1cc(N2CCOC[C@@H]2C(F)(F)F)cc(F)c1C(=O)N[C@@H](Cc1ccc(-n2c(=O)c3ccncc3n(C)c2=O)nc1)C(=O)O [Example 15]
Response: 9.68

Request: Return pEC50 (reported value) for this compound: Cc1cc(N2CCOC[C@@H]2C(F)(F)F)cc(F)c1C(=O)N[C@@H](Cc1ccc(-n2c(=O)c3c(n(C)c2=O)CCOC3)nc1)C(=O)O [Example 68]
Response: 9.52

Request: Return pEC50 (reported value) for this compound: Cc1cc(C[C@H](NC(=O)c2c(C)cc(N3CCOC[C@@H]3C(F)(F)F)cc2F)C(=O)O)ccc1-c1c(C(F)(F)F)cc(C)n(C)c1=O [Example 5]
Response: 9.70

Request: Return pEC50 (reported value) for this compound: Cn1c(=O)n(-c2ccc(C[C@H](NC(=O)c3c(F)cc(N4CCOC[C@@H]4C(F)(F)F)cc3F)C(=O)O)cn2)c(=O)c2ccncc21 [Example 13]
Response: 9.10

====

Kindly state pEC50 for each of the entries shown.
# tgt: α4β1 integrin (Homo sapiens, UniProt P05556+P13612)
# Construct: monitoring the capture of α4β1 expressing cells; endogenous in cells; host or cells: Jurkat
# Sequence (P05556 21-798, one chain of several): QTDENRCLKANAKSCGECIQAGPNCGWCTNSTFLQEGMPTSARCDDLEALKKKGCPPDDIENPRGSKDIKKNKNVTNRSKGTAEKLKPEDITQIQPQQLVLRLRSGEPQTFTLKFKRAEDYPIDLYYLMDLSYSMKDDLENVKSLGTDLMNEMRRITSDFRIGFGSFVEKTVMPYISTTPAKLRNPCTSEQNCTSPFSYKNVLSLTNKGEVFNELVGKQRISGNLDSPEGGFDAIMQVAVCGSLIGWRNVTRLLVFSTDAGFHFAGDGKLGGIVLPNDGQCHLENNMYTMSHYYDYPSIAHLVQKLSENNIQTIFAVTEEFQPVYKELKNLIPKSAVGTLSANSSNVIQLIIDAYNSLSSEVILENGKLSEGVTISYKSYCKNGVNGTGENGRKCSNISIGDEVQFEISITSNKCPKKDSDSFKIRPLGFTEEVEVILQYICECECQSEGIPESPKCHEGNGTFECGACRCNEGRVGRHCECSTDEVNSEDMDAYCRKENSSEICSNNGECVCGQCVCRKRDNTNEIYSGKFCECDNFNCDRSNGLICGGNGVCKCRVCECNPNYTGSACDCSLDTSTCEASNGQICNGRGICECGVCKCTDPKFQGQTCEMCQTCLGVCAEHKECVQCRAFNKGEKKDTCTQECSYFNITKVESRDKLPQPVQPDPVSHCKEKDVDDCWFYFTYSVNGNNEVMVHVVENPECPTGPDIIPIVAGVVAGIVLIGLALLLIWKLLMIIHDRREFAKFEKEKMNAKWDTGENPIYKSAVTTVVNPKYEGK
# assay overview: α4β1 Cell Capture Assay
# Format: cell-based
# test context: capture of α4β1 expressing Jurkat cells on VCAM-1 extracellular domain-coated plate; Table 2
Entry type: numeric. Quantity: pEC50, the -log10 of concentration in molar units.

Request: Write down measured pEC50 (α4β1 integrin (Homo sapiens, UniProt P05556+P13612)) for this compound. CC[C@@H](Nc1cc(F)c(C(=O)N[C@@H](Cc2ccc(-c3c(C)c4cc(F)ccc4n(C)c3=O)nc2)C(=O)O)c(F)c1)C(F)(F)F [Example 44]
Response: 7.42

Request: Write down measured pEC50 (α4β1 integrin (Homo sapiens, UniProt P05556+P13612)) for this compound. Cc1cc(N2CCOC[C@@H]2C(F)(F)F)cc(F)c1C(=O)N[C@@H](Cc1ccc(-n2c(=O)c3ccncc3n(C)c2=O)c(C(F)(F)F)c1)C(=O)O (atropisomer, axis not shown) [Example 89]
Response: 8.64

Request: Write down measured pEC50 (α4β1 integrin (Homo sapiens, UniProt P05556+P13612)) for this compound. Cc1cc(N2CCOC[C@H]2CC(F)F)cc(F)c1C(=O)N[C@@H](Cc1ccc(-n2c(=O)c3ccncc3n(C)c2=O)nc1)C(=O)O [Example 85]
Response: 7.75

Request: Write down measured pEC50 (α4β1 integrin (Homo sapiens, UniProt P05556+P13612)) for this compound. Cc1cc(N2CCOC[C@@H]2C(F)(F)F)cc(F)c1C(=O)N[C@@H](Cc1ccc(-n2c(=O)c3ccc(C#N)cc3n(C)c2=O)nc1)C(=O)O [Example 76]
Response: 8.31

Request: Write down measured pEC50 (α4β1 integrin (Homo sapiens, UniProt P05556+P13612)) for this compound. Cc1cc(C[C@H](NC(=O)c2c(C)cc(N3CCOC[C@@H]3C(F)(F)F)cc2F)C(=O)O)ccc1-c1nc(C)c(C)n(C)c1=O [Example 42]
Response: 8.24

Request: Write down measured pEC50 (α4β1 integrin (Homo sapiens, UniProt P05556+P13612)) for this compound. COc1cc(C)n(C)c(=O)c1-c1ccc(C[C@H](NC(=O)c2c(F)cc(N3CCOC[C@@H]3C(F)(F)F)cc2F)C(=O)O)cc1 [Example 30]
Response: 8.00
